- Assay Method Text: Pharmacokinetics of artesunate (AS) in plasma after multiple intravenous doses, compartmental analysis (Phase 1b)
- Assay type: in vivo, human
- Measurement Context: human, plasma, iv, 2 mg/kg, Day 1; AS 2 mg/kg iv daily for 3 days, 2 min infusion; mean (CV%), n = 6; CA
Measured Endpoint: Cmax
Phrase the answer as number then unit, nothing more needed.

Need Cmax, item C[C@H]1[C@H](OC(=O)CCC(=O)O)O[C@@H]2O[C@@]3(C)CC[C@H]4[C@H](C)CC[C@@H]1[C@@]24OO3 [AS]
28400 ng/mL

* * *

- Assay Method Text: Pharmacokinetics of dihydroartemisinin (DHA), active metabolite, in plasma after multiple intravenous AS doses, non-compartmental analysis
- Type: in vivo, human
- Measurement Context: human, plasma, iv, 8 mg/kg, mean elimination half-life of DHA, range, range of means over three days and AS 2, 4, 8 mg/kg iv doses
- Description: The study was a double blind, ascending multiple doses, alternating group, safety, tolerance, and PK study. […] When the injection was completed, the study nurse recorded tolerance of injection to include both inspection of site and subjects’ responses. […] The analytes were extracted from human plasma with ethyl acetate. […] The reconstituted extracts were analysed on a Micromass Quattro II Mass Spectrometer in the positive ion electrospray ionization (+ESI) mode. […]
Measured Endpoint: half-life

Need half-life, item C[C@H]1[C@@H](O)O[C@@H]2O[C@@]3(C)CC[C@H]4[C@H](C)CC[C@@H]1[C@@]24OO3 [DHA, dihydroartemisinin]
1.23 to 1.63 h

* * *

- Assay Method Text: Pharmacokinetics of artesunate (AS) in plasma after multiple intravenous doses, compartmental analysis (Phase 1b)
- Assay type: in vivo, human
- Measurement Context: human, plasma, iv, 2 mg/kg, Day 3; AS 2 mg/kg iv daily for 3 days, 2 min infusion; mean (CV%), n = 6; CA; read-out: CL_obs
Measured Endpoint: clearance (mL/min/kg)
Form entry: value (mL/min/kg) — number only.

Need clearance, item C[C@H]1[C@H](OC(=O)CCC(=O)O)O[C@@H]2O[C@@]3(C)CC[C@H]4[C@H](C)CC[C@@H]1[C@@]24OO3 [AS]
27.9

* * *

- Assay Method Text: Pharmacokinetics of artesunate (AS) in plasma after multiple intravenous doses, compartmental analysis (Phase 1b)
- Assay type: in vivo, human
- Measurement Context: human, plasma, iv, 2 mg/kg, Day 2; AS 2 mg/kg iv daily for 3 days, 2 min infusion; mean (CV%), n = 6; CA
Measured Endpoint: Cmax (ng/mL)
Form entry: value (ng/mL) — number only.

Need Cmax, item `C[C@H]1[C@H](OC(=O)CCC(=O)O)O[C@@H]2O[C@@]3(C)CC[C@H]4[C@H](C)CC[C@@H]1[C@@]24OO3`
17900

* * *

- Assay Method Text: Pharmacokinetics of artesunate (AS) in plasma after multiple intravenous doses, compartmental analysis (Phase 1b)
- Assay type: in vivo, human
- Measurement Context: human, plasma, iv, 2 mg/kg, Day 3; AS 2 mg/kg iv daily for 3 days, 2 min infusion; mean (CV%), n = 6; CA
- Protocol: The study was a double blind, ascending multiple doses, alternating group, safety, tolerance, and PK study. […] When the injection was completed, the study nurse recorded tolerance of injection to include both inspection of site and subjects’ responses. […] The analytes were extracted from human plasma with ethyl acetate. […] The reconstituted extracts were analysed on a Micromass Quattro II Mass Spectrometer in the positive ion electrospray ionization (+ESI) mode. […]
Measured Endpoint: Cmax (ng/mL)
Form entry: value (ng/mL) — number only.

Need Cmax, item `C[C@H]1[C@H](OC(=O)CCC(=O)O)O[C@@H]2O[C@@]3(C)CC[C@H]4[C@H](C)CC[C@@H]1[C@@]24OO3`
16500
